assayed-target: human P2X3 receptors (Homo sapiens)
Construct: expressed in transfected cells; host or cells: Xenopus laevis oocytes (nuclear injection of the P2X3 insert in pCDNA3.1)
Sequence (P56373 whole entry): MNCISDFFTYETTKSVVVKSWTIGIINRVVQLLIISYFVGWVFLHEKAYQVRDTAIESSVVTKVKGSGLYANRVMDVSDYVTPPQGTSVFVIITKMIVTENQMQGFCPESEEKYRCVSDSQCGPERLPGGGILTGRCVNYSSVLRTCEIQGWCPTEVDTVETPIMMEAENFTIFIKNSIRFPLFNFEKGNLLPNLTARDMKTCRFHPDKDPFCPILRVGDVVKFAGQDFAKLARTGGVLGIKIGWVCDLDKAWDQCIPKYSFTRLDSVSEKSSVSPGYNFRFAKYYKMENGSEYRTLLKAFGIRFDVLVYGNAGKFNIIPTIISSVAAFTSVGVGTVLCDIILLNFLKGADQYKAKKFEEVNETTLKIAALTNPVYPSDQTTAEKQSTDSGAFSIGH
experimental-protocol: Two-electrode voltage-clamp of Xenopus oocytes expressing recombinant human P2X3 receptor
Format: cell-based
pEC50: −log10 of the molar value.

[
  {
    "substance-smiles": "Nc1ncnc2c1ncn2[C@@H]1O[C@H](COP(=O)(O)CP(=O)(O)OP(=O)(O)O)[C@@H](O)[C@H]1O",
    "pEC50": 5.68
  }
]

Measured values drawn from patent US6214581A for this set.
